Reference source for all entries: patent US9247759B2

molecular target: hT2R64 (Homo sapiens (Human), UniProt P59538); test: hT2R panel inhibition, transient HEK293 G16g44, agonist Aristolochic Acid 1 μM; format: cell-based; details: HEK293, compound at 25 μM; receptor activated to EC80 with the corresponding agonist; read-out: screening result against bitter receptor 64
Sequence (P59538 whole entry): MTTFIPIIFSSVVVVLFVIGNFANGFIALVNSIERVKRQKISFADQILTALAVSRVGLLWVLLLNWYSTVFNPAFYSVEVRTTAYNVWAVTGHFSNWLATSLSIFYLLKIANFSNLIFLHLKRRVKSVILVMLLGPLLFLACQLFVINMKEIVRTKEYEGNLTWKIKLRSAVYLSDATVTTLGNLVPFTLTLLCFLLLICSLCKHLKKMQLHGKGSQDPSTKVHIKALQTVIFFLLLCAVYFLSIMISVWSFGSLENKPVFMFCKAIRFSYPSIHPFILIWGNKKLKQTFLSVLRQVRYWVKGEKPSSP
endpoint name: inhibition at 25 µM

Solved entries (count: 5):
compound	endpoint name	value measured
O=C(O)c1ccc(CN(Cc2ccccc2F)S(=O)(=O)c2ccccc2)cc1	inhibition at 25 µM	> 80%
O=C(O)C1CCC(CN(Cc2ccc(F)cc2)S(=O)(=O)c2cccs2)CC1 (stereo not shown)	inhibition at 25 µM	40 to 60%
N#Cc1ccccc1CN(Cc1ccccc1)S(=O)(=O)c1ccc(C(=O)O)cc1	inhibition at 25 µM	> 80%
COc1ccc(CN(Cc2cccc(C(=O)O)c2)S(=O)(=O)c2ccc(C(=O)O)cc2)cc1	inhibition at 25 µM	20 to 40%
COc1ccc(CN(C)S(=O)(=O)c2ccc(C(=O)O)cc2)cc1	inhibition at 25 µM	40 to 60%

Task: Returns the measured inhibition at 25 µM for the input compound. Input: Cc1ccc(S(=O)(=O)N(Cc2ccc(F)cc2)Cc2ccc(C(=O)O)cc2)cc1
Output: 60 to 80%
